Test system: THLE-3 human hepatoma cells
Experiment: Drug activity persistence after incubation with THLE-3 hepatoma cells
Assay type: in vitro ADME
Settings: Homo sapiens, THLE3, 24 h, 20 μM preincubated 24 h with THLE-3 hepatoma cells, diluted to 10 μM on H4 cells; read-out: hepatoma incubation Yes total Aβ (% decrease)
Procedure: H4βAPP695 wt cells, a human […] cell line stably transfected with a wtβAPP695 expression vector construct under the control of a CMV promoter (kindly provided by Dr. Chris Eckman from Mayo Clinic, Florida) were cultured as previously described. Twenty-four hours before drug treatment, the media was replaced with serum-free media. […] Transepithelial resistance was measured in each well and found to be >160 Ω/cm^2. […]
Assign yes (1) whenever inhibition at 10 µM does not fall below 30%; assign no (0) whenever it does.

INSERT INTO assay_data (molecule, category_label) VALUES
  ('COc1cccc(CSCCNC(=O)c2c(Cl)cccc2Cl)c1 [Compound 27]', 'no (0)');

# bool: inhibition at 10 µM of Cc1cccc(CSCCNC(=O)c2c(Cl)cccc2Cl)c1 [Compound 48] >= 30%
yes (1)

Check this molecule for inhibition at 10 µM at or above 30%: COc1cc(Cl)cc(CSCCNC(=O)c2c(Cl)cccc2Cl)c1 [Compound 73]
yes (1)

Has O=C(NCCSCc1cccc(I)c1)c1c(Cl)cccc1Cl [Compound 53] a recorded inhibition at 10 µM greater than or equal to 30%?
yes (1)

Threshold query (inhibition at 10 µM >= 30%) on O=C(NCCSCc1cccc(Cl)c1)c1c(Cl)cccc1Cl [Compound 1]
yes (1)
